# subject of test: Sushi domains (SD1/2) protein of the GABAB1a (GB1a) subunit, recombinant
# Sequence (Q9Z0U4 29-158): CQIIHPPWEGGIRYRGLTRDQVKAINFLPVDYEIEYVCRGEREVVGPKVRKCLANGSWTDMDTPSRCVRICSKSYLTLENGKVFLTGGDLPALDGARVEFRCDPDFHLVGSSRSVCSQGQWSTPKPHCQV
# test name: FP competition
Non-standard residues stand in square brackets, D forms with d. 2Nal = N[C@@H](Cc1ccc2ccccc2c1)C(=O)O; Sar = CNCC(=O)O
quantity measured: pKi
Expect pKi as a plain number equal to -log10 of the molar concentration.

Study these solved cases before continuing.
binder	pKi
Ac-EDDSDVWW[2Nal]GADTD-NH2 (SMILES CC(=O)N[C@@H](CCC(=O)O)C(=O)N[C@@H](CC(=O)O)C(=O)N[C@@H](CC(=O)O)C(=O)N[C@@H](CO)C(=O)N[C@@H](CC(=O)O)C(=O)N[C@H](C(=O)N[C@@H](Cc1c[nH]c2ccccc12)C(=O)N[C@@H](Cc1c[nH]c2ccccc12)C(=O)N[C@@H](Cc1ccc2ccccc2c1)C(=O)NCC(=O)N[C@@H](C)C(=O)N[C@@H](CC(=O)O)C(=O)N[C@H](C(=O)N[C@@H](CC(=O)O)C(N)=O)[C@@H](C)O)C(C)C) [EDDSDVWW(2Nala)GADTD]	7.00
Ac-EDDSDVWWGGADT[dD]-NH2 […d]	6.28
Ac-EDDSDVWWDGADTD-NH2	6.37

## Input Record request: pKi value, item Ac-EDDDWIDWYDSDDDRRRRRRRR-NH2 [16-R8 (…)]
## Output 7.19

## Input Try this binder next: Ac-EDDSDVWWG[Sar]ADTD-NH2 (SMILES CC(=O)N[C@@H](CCC(=O)O)C(=O)N[C@@H](CC(=O)O)C(=O)N[C@@H](CC(=O)O)C(=O)N[C@@H](CO)C(=O)N[C@@H](CC(=O)O)C(=O)N[C@H](C(=O)N[C@@H](Cc1c[nH]c2ccccc12)C(=O)N[C@@H](Cc1c[nH]c2ccccc12)C(=O)NCC(=O)N(C)CC(=O)N[C@@H](C)C(=O)N[C@@H](CC(=O)O)C(=O)N[C@H](C(=O)N[C@@H](CC(=O)O)C(N)=O)[C@@H](C)O)C(C)C) […(N-Me-G)ADTD]
## Output 6.79

## Input Try this binder next: Ac-EDDSDVWWGGADWD-NH2
## Output 6.34

## Input Try this binder next: Ac-PWAIVWGPAVSRED-NH2
## Output 5.99

## Input Try this binder next: Ac-[dP]WAIVWGPTVSRED-NH2 (SMILES CC[C@H](C)[C@H](NC(=O)[C@H](C)NC(=O)[C@H](Cc1c[nH]c2ccccc12)NC(=O)[C@H]1CCCN1C(C)=O)C(=O)N[C@H](C(=O)N[C@@H](Cc1c[nH]c2ccccc12)C(=O)NCC(=O)N1CCC[C@H]1C(=O)N[C@H](C(=O)N[C@H](C(=O)N[C@@H](CO)C(=O)N[C@@H](CCCNC(=N)N)C(=O)N[C@@H](CCC(=O)O)C(=O)N[C@@H](CC(=O)O)C(N)=O)C(C)C)[C@@H](C)O)C(C)C) [p…]
## Output 6.26

## Input Try this binder next: Ac-ETEFIAWGATGDED-NH2
## Output 6.54
